Numbers sourced from patent US20260262643A1.

Tested on: foxtail, giant
Assay: Test C preemergence
Type: in vivo, Setaria faberi
Conditions: 500 g ai/ha, preemergence; 0 to 100 scale (0 no effect, 100 complete control)
METRIC_NAME: Foxtail, Giant plant response rating
Answers are plain numbers.

Field: example entries. Status: answers known.
Cc1cccc2c1O[C@@H](C)CN2C(=O)c1cccc(-n2nccn2)c1 [Compound 282]; 0
Cc1cccc2c1OC(C(F)(F)F)CN2C(=O)c1ccnc(-n2cnc(C(C)C)n2)c1 (stereo not drawn) [Compound 327]; 100
Cc1ncnn1-c1cc(C(=O)N2CC(C(F)(F)F)Oc3c(Cl)cccc32)ccn1 (racemic) [Compound 333]; 80
CCc1cc(C(=O)N2C[C@H](C)Oc3c(Cl)cccc32)cc(-n2cncn2)c1 [Compound 332]; 100
Cc1cccc2c1O[C@@H](C)CN2C(=O)c1cccc(-n2cnc(C#C[Si](C)(C)C)n2)c1 [Compound 284]; 90

Please turn your attention to the following entry.
Record CC(C)c1ncn(-c2cc(C(=O)N3CC(C(F)(F)F)Oc4c(Cl)cccc43)ccn2)n1 (single isomer, unassigned) [Compound 330] : what is its Foxtail, Giant plant response rating with foxtail, giant? 100

----------
Please respond with reported Ryegrass, Italian plant response rating for every item in the list.
Test system: ryegrass, Italian
Assay: Test C preemergence
Format: in vivo, Lolium multiflorum
Details: 500 g ai/ha, preemergence; 0 to 100 scale (0 no effect, 100 complete control)
One number for each entry.

CC(C)c1ncn(-c2cc(C(=O)N3C[C@H](C)Oc4c(Cl)cccc43)cnn2)n1; 90
CC(C)c1ncn(-c2ccc(OS(=O)(=O)C(F)(F)F)c(C(=O)N3C[C@H](C)Oc4c(Cl)cccc43)c2)n1; 80
COC[C@H]1CN(C(=O)c2cc(-n3cnc(C(C)(C)O)n3)ccc2C)c2cccc(Cl)c2O1; 90
Cc1cccc2c1OC(C(F)(F)F)CN2C(=O)c1cccc(-n2cnc(C(C)(C)C)n2)c1 (stereo not drawn); 100

# return Ryegrass, Italian plant response rating for each item in the list
1. COC[C@H]1CN(C(=O)c2cc(-n3cnc(C(C)C)n3)ccc2OC)c2cccc(Cl)c2O1
2. COc1ccc(-n2cnc(C(C)C)n2)cc1C(=O)N1C[C@H](C)Oc2c(F)cccc21
3. COC(=O)N(C)c1ncn(-c2cccc(C(=O)N3C[C@H](C)Oc4c(C)cccc43)c2)n1
4. Cc1cccc2c1O[C@@H](C)CN2C(=O)c1cccc(-n2cnc(C#C[Si](C)(C)C)n2)c1

1. 100
2. 100
3. 80
4. 90

// for each compound below, give its Ryegrass, Italian plant response rating
1. CCc1ncn(-c2ccc(C)c(C(=O)N3CC(C(F)(F)F)Oc4c(Cl)cccc43)c2)n1 (racemic)
2. CCc1ncn(-c2cccc(C(=O)N3CC(C(F)(F)F)Oc4c(C)cccc43)c2)n1 (stereo not drawn)
3. COC[C@H]1CN(C(=O)c2cc(-n3cnc(C4CCC4)n3)ccc2C)c2cccc(Cl)c2O1
4. CC(C)c1ncn(-c2cc(C(=O)N3CC(C(F)(F)F)Oc4c(Cl)cccc43)ccn2)n1 (single isomer, unassigned)
5. CC(C)c1ncn(-c2cccc(C(=O)N3CC(C(F)(F)F)Oc4c(Cl)cccc43)c2)n1 (single isomer, unassigned)
6. Cc1cccc2c1OC(C(F)(F)F)CN2C(=O)c1cccc(-n2cnc(C(C)C)n2)c1 (single isomer, unassigned)

1. 100
2. 100
3. 90
4. 100
5. 100
6. 100

Item under review: `CCOC[C@H]1CN(C(=O)c2cc(-n3cnc(C(C)C)n3)ccc2C)c2cccc(Cl)c2O1` . Reported Ryegrass, Italian plant response rating? 100
